Target: Opioid receptors; mu & delta (Rattus norvegicus) (UniProt P33533+P33535)
Sequence (P33535 whole entry, looked up, one chain of several): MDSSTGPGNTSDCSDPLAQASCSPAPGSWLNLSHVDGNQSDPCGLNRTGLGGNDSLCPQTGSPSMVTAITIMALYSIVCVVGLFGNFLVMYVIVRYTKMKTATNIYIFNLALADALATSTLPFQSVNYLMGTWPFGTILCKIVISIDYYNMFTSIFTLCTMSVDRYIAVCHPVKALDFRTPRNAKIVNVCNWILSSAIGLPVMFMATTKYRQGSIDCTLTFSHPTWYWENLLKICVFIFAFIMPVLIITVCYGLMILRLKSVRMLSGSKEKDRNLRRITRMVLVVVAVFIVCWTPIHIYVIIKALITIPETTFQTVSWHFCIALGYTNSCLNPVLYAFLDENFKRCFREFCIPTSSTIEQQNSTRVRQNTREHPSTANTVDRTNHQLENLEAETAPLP
Assay: Selectivity for delta opioid receptor over mu opioid receptor
Assay type: protein assay
Mark Criterion met only when Ratio Ki stays strictly below 2. Values equal to the cut-off are Criterion not met.

Solved cases below.
Compound Structure | Classification
NC(=O)c1ccc(C[C@H](N)C(=O)N2Cc3ccccc3C[C@H]2c2nc(-c3ccccc3)c[nH]2)cc1 | Criterion not met
COc1ccc(C[C@H](N)C(=O)N2Cc3ccccc3C[C@H]2c2nc(C)c(-c3ccccc3)[nH]2)cc1 | Criterion not met
Cc1[nH]c([C@@H]2Cc3ccccc3CN2C(=O)[C@@H](N)Cc2ccccc2)nc1-c1ccccc1 | Criterion not met
Cc1cc(O)cc(C)c1C[C@H](N)C(=O)N1Cc2ccccc2C[C@H]1c1nc(-c2ccccc2)c[nH]1 | Criterion not met
Cc1[nH]c([C@@H]2Cc3ccccc3CN2C(=O)[C@@H](N)Cc2ccc(F)cc2)nc1-c1ccccc1 | Criterion not met

Is it true that Ratio Ki reported for `N[C@@H](Cc1ccc(O)cc1)C(=O)N1Cc2ccccc2C[C@H]1c1nc(-c2ccccc2)c[nH]1` is less than 2?
Criterion not met

Given the entry `NC(=O)c1ccc(C[C@H](N)C(=O)N2CCCC[C@H]2c2nc(-c3ccccc3)c[nH]2)cc1` , would its reported Ratio Ki be below 2?
Criterion met

Decide: Ratio Ki of `N[C@@H](Cc1ccc(O)cc1)C(=O)N1CCCC[C@H]1c1nc(-c2ccccc2)c[nH]1` strictly below 2?
Criterion met

Could you please tell me whether Ratio Ki recorded for `Cc1[nH]c([C@@H]2CCCCN2C(=O)[C@@H](N)Cc2ccc(O)cc2)nc1-c1ccccc1` is less than 2?
Criterion met

Could you please tell me whether Ratio Ki recorded for `Cc1cc(O)cc(C)c1C[C@H](N)C(=O)N1Cc2ccccc2C[C@H]1c1nc(C)c(-c2ccccc2)[nH]1` is less than 2?
Criterion not met

----------
Quick note: these are pKi numbers for system: UniProt P33535
Sequence (P33535 whole entry): as the sequence (P33535 whole entry, looked up, one chain of several) above
pKi here: minus log base 10 of the concentration, concentration in moles per litre.

Compound Structure | Reported Value
N[C@@H](Cc1ccc(O)cc1)C(=O)N1CCCC[C@H]1c1nc(-c2ccccc2)c[nH]1 | 8.42
N[C@@H](Cc1ccc(C(=O)O)cc1)C(=O)N1Cc2ccccc2C[C@H]1c1nc(-c2ccccc2)c[nH]1 | 5.24
Cc1cc(O)cc(C)c1C[C@H](N)C(=O)N1Cc2ccccc2C[C@H]1c1nc(-c2ccccc2)c[nH]1 | 9.52
NC(=O)c1ccc(C[C@H](N)C(=O)N2CCCC[C@H]2c2nc(-c3ccccc3)c[nH]2)cc1 | 8.92

Suppose we examine the molecule `Cc1cc(O)cc(C)c1C[C@H](N)C(=O)N1CCCC[C@H]1c1nc(-c2ccccc2)c[nH]1` ; what pKi value has been reported?
10.30

Please report the recorded pKi for `N[C@@H](Cc1ccccc1)C(=O)N1Cc2ccccc2C[C@H]1c1nc(-c2ccccc2)c[nH]1` .
6.35

Field request: pKi | item: `NC(=O)c1ccc(C[C@H](N)C(=O)N2Cc3ccccc3C[C@H]2c2nc(-c3ccccc3)c[nH]2)cc1`
7.64

Value lookup for pKi; key = `Cc1[nH]c([C@@H]2Cc3ccccc3CN2C(=O)[C@@H](N)Cc2ccc(C#N)cc2)nc1-c1ccccc1`
5.87

----------
Biological target: Delta-type opioid receptor (Rattus norvegicus)
Sequence (P33533 whole entry): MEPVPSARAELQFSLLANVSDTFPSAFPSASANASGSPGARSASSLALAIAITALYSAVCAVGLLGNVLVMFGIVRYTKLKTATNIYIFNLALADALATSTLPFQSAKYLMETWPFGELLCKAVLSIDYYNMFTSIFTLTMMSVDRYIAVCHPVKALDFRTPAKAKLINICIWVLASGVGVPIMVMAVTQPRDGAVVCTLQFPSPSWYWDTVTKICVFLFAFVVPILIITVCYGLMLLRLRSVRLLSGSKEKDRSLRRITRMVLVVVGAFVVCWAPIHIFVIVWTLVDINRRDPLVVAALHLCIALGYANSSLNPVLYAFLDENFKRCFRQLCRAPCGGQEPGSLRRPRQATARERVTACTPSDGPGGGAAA
Test: Displacement of [3H]DPDPE from delta opioid receptor in rat brain
List of Ki values.
Number first, unit second: that is the form wanted.

Compound Structure | Ki
Cc1[nH]c([C@@H]2Cc3ccccc3CN2C(=O)[C@@H](N)Cc2ccccc2)nc1-c1ccccc1 | 236 nM
Cc1[nH]c([C@@H]2Cc3ccccc3CN2C(=O)[C@@H](N)Cc2ccc(C#N)cc2)nc1-c1ccccc1 | 752 nM
N[C@@H](Cc1ccc(O)cc1)C(=O)N1CCCC[C@H]1c1nc(-c2ccccc2)c[nH]1 | 198 nM
Cc1cc(C(N)=O)cc(C)c1C[C@H](N)C(=O)N1CCCC[C@H]1c1nc(-c2ccccc2)c[nH]1 | 14 nM

I would be grateful if you could share the reported Ki for `CS(=O)(=O)Nc1ccc(C[C@H](N)C(=O)N2Cc3ccccc3C[C@H]2c2nc(-c3ccccc3)c[nH]2)cc1` .
342 nM

Requested field: Ki. Item: `N[C@@H](Cc1ccc(CO)cc1)C(=O)N1Cc2ccccc2C[C@H]1c1nc(-c2ccccc2)c[nH]1`
466 nM
